Value source: paper PMC10155261

# System: P-glycoprotein (MDR1)
# procedure summary: Bidirectional MDCK-MDR1 permeability
# Assay type: in vitro ADME
# assay setup: dog, MDCK-MDR1, pH 7.4
property label: efflux ratio at 90 min, 10 μM

1) COc1cc2c(C(=O)N3CCC(F)CC3)cn(-c3ccc4scc(C)c4c3)c(=O)c2cc1OC    < 2.5

// query Returns the measured efflux ratio at 90 min, 10 μM for the input molecule. Input: C#CC1CCN(C(=O)c2cn(-c3ccc4scc(C)c4c3)c(=O)c3cc(OC)c(OC)cc23)CC1
// result < 2.5

---

# target of assay: hLPA5 (Homo sapiens, UniProt Q9H1C0)
# Sequence (Q9H1C0 whole entry): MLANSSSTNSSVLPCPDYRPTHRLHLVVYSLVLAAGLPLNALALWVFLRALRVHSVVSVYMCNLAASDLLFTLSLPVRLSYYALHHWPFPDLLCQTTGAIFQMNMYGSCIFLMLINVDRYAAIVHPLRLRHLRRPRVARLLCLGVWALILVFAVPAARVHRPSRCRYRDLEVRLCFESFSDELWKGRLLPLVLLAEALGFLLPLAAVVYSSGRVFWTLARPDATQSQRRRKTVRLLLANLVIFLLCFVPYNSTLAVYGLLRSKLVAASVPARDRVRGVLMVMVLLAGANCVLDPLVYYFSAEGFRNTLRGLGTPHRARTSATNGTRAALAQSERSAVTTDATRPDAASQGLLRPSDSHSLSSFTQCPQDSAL
# procedure summary: LPA5 TR-FRET Lance Ultra cAMP assay
# Type: cell-based
# assay setup: cAMP potency / calcium mobilization potency
property label: potency difference between cAMP and calcium mobilization assays (fold)
Kindly answer with a numeric value in fold, unit omitted.

// query Kindly state the measured potency difference between cAMP and calcium mobilization assays obtained for COc1cc2c(C(=O)N3CCCCC3)cn(-c3ccc4occ(C)c4c3)c(=O)c2cc1OC [Compound 56] with hLPA5 (Homo sapiens, UniProt Q9H1C0).
// result 3.9

// query Same for COc1cc2c(C(=O)N3CCC(F)CC3)cn(-c3ccc4scc(C)c4c3)c(=O)c2cc1OC [Compound 65]
// result 4.9

// query Same for COc1cc2c(C(=O)N3CCCCC3)cn(-c3ccc4ccn(C)c4c3)c(=O)c2cc1OC [Compound 58]
// result 7.2
